Target: T1, B-cat-Halo (beta-catenin HaloTag construct expressed in HEK293 cells) (UniProt P35222 1-781)
T1 sequence (looked up): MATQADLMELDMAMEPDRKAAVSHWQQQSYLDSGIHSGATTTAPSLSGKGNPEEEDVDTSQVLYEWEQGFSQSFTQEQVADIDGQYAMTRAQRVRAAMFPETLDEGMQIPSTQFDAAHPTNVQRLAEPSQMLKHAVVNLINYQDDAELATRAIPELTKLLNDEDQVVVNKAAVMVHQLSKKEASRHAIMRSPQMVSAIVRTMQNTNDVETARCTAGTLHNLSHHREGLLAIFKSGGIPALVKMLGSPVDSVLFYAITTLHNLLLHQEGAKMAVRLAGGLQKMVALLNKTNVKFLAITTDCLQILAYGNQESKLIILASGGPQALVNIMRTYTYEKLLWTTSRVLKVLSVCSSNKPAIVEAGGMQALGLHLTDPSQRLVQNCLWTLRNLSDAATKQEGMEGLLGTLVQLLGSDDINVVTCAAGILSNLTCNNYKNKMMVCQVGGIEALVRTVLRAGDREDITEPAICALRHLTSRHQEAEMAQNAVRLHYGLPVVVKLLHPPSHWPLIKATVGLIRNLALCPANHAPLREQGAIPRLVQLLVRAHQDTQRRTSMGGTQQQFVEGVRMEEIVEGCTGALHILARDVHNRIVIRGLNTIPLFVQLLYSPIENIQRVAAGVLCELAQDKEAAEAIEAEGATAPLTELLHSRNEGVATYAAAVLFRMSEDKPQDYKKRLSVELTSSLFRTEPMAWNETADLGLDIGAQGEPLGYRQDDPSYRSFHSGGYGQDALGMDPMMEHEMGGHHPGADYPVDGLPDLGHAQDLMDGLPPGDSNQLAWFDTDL
Assay: cell-based or functional assay
Starred links: 1 amine or outer side, 2 acyl side, 3 side chain; linkers in the order of their positions; H or OH if unused. Positions of bridges follow the written chain, without caps; N, C: chain ends. Non-standard residues stand in square brackets, D forms with d. Primed or numbered codes have the meaning given here. PyrS2″ = (S)-3-amino-1-((pent-4-en-1-yloxy)carbonyl)pyrrolidine-3-carboxylic acid (stapling residue), C=CCCCOC(=O)N1CC[C@@](N[*:1])(C(=O)[*:2])C1; B5(4) = 2,2-bis(4-pentenyl)glycine = 2-amino-2-(pent-4-en-1-yl)hept-6-enoic acid (stitching residue), C=CCCCC(CCCC=C)(N[*:1])C(=O)[*:2]; B5″ = 2,2-bis(4-pentenyl)glycine, stitching residue, C=CCCCC(CCCC=C)(N[*:1])C(=O)[*:2]; Bta = N[C@@H](Cc1csc2ccccc12)C(=O)O; αAllylPro = C=CC[C@@]1(C(=O)O)CCCN1; tBuAla = CC(C)(C)C[C@H](N)C(=O)O; 3Thi = N[C@@H](Cc1ccsc1)C(=O)O; Cha = N[C@@H](CC1CCCCC1)C(=O)O; S8 = C=CCCCCCC[C@](C)(N)C(=O)O; Aib = CC(C)(N)C(=O)O
reportedEndpoint: NanoBRET Abs IC50 (µM)
Numbers only; they are read as µM.

[[record]]
binder = "Ac-[αAllylPro]D[tBuAla][B5(4)]DTAAFT[PyrS2″][3Thi][Bta]Q-NH2 (staple 1-4, 4-11) [I-1166]"
valueunit = "µM"
recordednumber = 14.6


Problem: Output measured NanoBRET Abs IC50 for this item: Ac-[αAllylPro]D[Cha][B5(4)]DTAAFT[PyrS2″][3Thi][Bta]Q-NH2 (staple 1-4, 4-11) [I-1173]
Solution: 17.2

Problem: # return recorded NanoBRET Abs IC50 for input Ac-[αAllylPro]D[tBuAla][B5(4)]DTAAFL[PyrS2″][3Thi][Bta]Q-NH2 (staple 1-4, 4-11) [I-1167]
Solution: 11.7

Problem: Write down NanoBRET Abs IC50 measured for item Ac-[αAllylPro]D[tBuAla][B5″]DDAAFL[S8][3Thi][Bta]H-NH2 (staple 1-4, 4-11) [I-1195]
Solution: 16.2

Problem: Please list NanoBRET Abs IC50 recorded for the binder Ac-[αAllylPro]D[tBuAla][B5″]DDAAFL[S8][3Thi][Bta]Q-NH2 (staple 1-4, 4-11) [I-1188]
Solution: 7.2

Problem: Return value of NanoBRET Abs IC50 for input Ac-[αAllylPro]D[tBuAla][B5(4)]DTAAFT[PyrS2″][3Thi][Bta]S-NH2 (staple 1-4, 4-11) [I-1170] , no commentary.
Solution: 13.5

Problem: Return NanoBRET Abs IC50 (reported value) for this binder: Ac-[αAllylPro]D[tBuAla][B5(4)]DD[Aib]AFL[PyrS2″][3Thi][Bta]Q-NH2 (staple 1-4, 4-11) [I-1177]
Solution: 4.3
